- study system: human recombinant A2A adenosine receptor (Homo sapiens (Human))
- Sequence (P29274 whole entry): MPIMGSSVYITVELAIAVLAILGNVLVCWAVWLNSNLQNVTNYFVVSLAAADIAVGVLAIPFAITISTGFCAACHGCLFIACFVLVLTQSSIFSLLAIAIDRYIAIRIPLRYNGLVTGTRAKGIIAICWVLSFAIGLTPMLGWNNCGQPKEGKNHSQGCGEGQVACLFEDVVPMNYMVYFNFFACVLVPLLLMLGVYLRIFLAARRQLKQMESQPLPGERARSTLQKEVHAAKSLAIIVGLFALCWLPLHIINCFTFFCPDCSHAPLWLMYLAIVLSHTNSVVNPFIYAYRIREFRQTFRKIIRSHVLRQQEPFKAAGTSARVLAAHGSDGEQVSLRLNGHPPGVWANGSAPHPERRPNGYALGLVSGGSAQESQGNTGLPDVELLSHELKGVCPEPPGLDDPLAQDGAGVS
- method description: Adenosine receptor binding, displacement of specific [3H]NECA binding
- assay context: [3H]NECA displacement, CHO cells stably transfected with human recombinant A2A adenosine receptor
Catalogue of Ki readings, one per entry.
Field format: number, assumed µM, no unit text.

// worked examples, Ki included
1) Cc1ccc(CO[C@H]2CCC[C@@H]2Nc2ncnc3c2ncn3[C@@H]2O[C@H](CO)[C@@H](O)[C@H]2O)cc1 | 25.4
2) Cc1cccc(CO[C@H]2CCC[C@@H]2Nc2ncnc3c2ncn3[C@@H]2O[C@H](CO)[C@@H](O)[C@H]2O)c1 | 5.32
3) OC[C@H]1O[C@@H](n2cnc3c(N[C@@H]4CCC[C@H]4OCc4cccc(F)c4)ncnc32)[C@H](O)[C@@H]1O | 2.55
4) Cc1cccc(CO[C@@H]2CCC[C@H]2Nc2ncnc3c2ncn3[C@@H]2O[C@H](CO)[C@@H](O)[C@H]2O)c1 | 3.37
5) Cc1ccccc1CO[C@@H]1CCC[C@H]1Nc1ncnc2c1ncn2[C@@H]1O[C@H](CO)[C@@H](O)[C@H]1O | 0.422
6) Cc1ccccc1CO[C@H]1CCC[C@@H]1Nc1ncnc2c1ncn2[C@@H]1O[C@H](CO)[C@@H](O)[C@H]1O | 7.33
7) OC[C@H]1OC(n2cnc3c(NC4CCC[C@@H]4OCc4ccc(F)cc4)ncnc32)[C@H](O)[C@@H]1O (stereo partly drawn) | 11.4
8) OC[C@H]1O[C@@H](n2cnc3c(N[C@H]4CCC[C@@H]4OCc4cccc(F)c4)ncnc32)[C@H](O)[C@@H]1O | 5.54

# next compound below
Q: GET Ki where system = human recombinant A2A adenosine receptor (Homo sapiens (Human)) and item = OC[C@H]1O[C@@H](n2cnc3c(N[C@@H]4CCC[C@H]4OCc4ccc(F)cc4)ncnc32)[C@H](O)[C@@H]1O
Result: 3.78
